- assay-system: T1, human SIRPα v1-Fc (SIRPα1 extracellular domain fused to human IGHG1_Fc) (human, UniProt P78324 31-373; P0DOX5 223-449 = IgG part)
- T1 construct: also called V1 (e.g. SIRPα1); SIRPα V1: DLN
- measurement-protocol: BLI Octet, antigen-Fc on biosensor;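 also: antigen captured on the biosensor tip and then immersed in solutions of the test antibodies, which act as the analyte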
measured-attribute: Kd (nM)
The answer is to be given in nM; state only the numeric part.

Prompt: Tell me the measured Kd of SIRPAB-3 (antibody, human IgG1, kappa, V domains shown) VH: QVQLQESGPGLVKPSQTLSLTCTVSGGSISSGGWYWQWIRQHPGKGLEWIGTIYYSGSTFYNPSLKSRVTISVDTSKNQFSLKLSSVTAADTAVYYCAREGYHSGMDVWGQGTTVTVSS VL: DIQMTQSPSSLSASVGDRVTITCQASQDISNYLNWYQQKPGKAPKLLIYDASNLATGVPSRFSGSGSGTDFTFTISSLQPEDIATYYCQQFAYLPWTFGGGTKVEIKR , please.
Completion: 0.2
